Reference for the values: PubChem BioAssay

Target: E3 ubiquitin-protein ligase XIAP (Homo sapiens) (UniProt P98170)
Sequence (P98170 whole entry, looked up): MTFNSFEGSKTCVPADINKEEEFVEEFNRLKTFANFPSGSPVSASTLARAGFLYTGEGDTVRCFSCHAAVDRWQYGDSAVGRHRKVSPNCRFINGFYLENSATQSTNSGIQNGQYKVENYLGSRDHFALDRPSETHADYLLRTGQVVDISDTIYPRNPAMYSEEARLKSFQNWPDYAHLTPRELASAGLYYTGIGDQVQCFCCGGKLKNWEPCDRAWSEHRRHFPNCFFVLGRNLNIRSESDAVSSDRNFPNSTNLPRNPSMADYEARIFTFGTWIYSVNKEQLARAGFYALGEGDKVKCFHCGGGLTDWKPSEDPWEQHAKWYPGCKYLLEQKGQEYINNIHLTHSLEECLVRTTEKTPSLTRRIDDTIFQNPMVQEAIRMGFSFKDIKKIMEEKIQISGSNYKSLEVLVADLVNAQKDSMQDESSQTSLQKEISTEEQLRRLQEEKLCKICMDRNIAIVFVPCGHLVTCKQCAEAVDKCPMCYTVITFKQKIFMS
Experiment: XIAP binders, primary screen, biophysical, small-molecule microarray, fluorescence 635 nm (AID 1181);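 further: score merges 667 nm emission and signal to noise over triplicate slides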
Details: small-molecule microarray binding, higher = more signal
Can you tell me composite z-score for the items I'm about to list?
Response field accepts a number only; no unit should be typed.

Memo: COc1cc2c(cc1O)C(c1ccc(CN3CCCC3)cc1)N(Cc1ccc([N+](=O)[O-])o1)CC2 (centres undefined) , reported composite z-score: 0.0537

Memo: C=CCOC(=O)[C@H]1[C@@H]2C(=O)O[C@@H](c3ccccc3)[C@@H](c3ccccc3)N2[C@@H](c2ccc(OCCOC(=O)[C@@H]3C[C@@H]4C(=O)N[C@@H](CC(C)C)C(=O)N4[C@@H]3c3ccc(O)cc3)cc2)[C@]12C(=O)Nc1ccc(I)cc12 , reported composite z-score: -0.0232

Memo: COc1ccc(CC[C@H](O)c2cccc(OCC(=O)OC(C)(C)C)c2)cc1 , reported composite z-score: -0.121

Memo: CC(=O)NCCCC[C@@H]1NC(=O)[C@@H]2C[C@H](C(=O)NCCCCCC[N+](C)(C)C)[C@H](c3ccc(O)cc3)N2C1=O , reported composite z-score: 0.123

----------
Test system: XIP peptide (Xip251-270)
Experiment: small-molecule binders of XIP peptide, primary screen, biochemical, small-molecule microarray, fluorescence 635/667 nm, 0.5 µg/mL protein (AID 1183)
Settings: small-molecule microarray binding, fluorescence 635 nm; higher = more signal
Answer n if composite z-score is under 0.5, and y if it is 0.5 or more.

Task: Record O=C1C2C=CC(C(O)c3cccc(O)c3)N(Nc3ccccc3F)C2C(=O)N1c1ccccc1 (stereo not given) ; criterion: composite z-score no lower than 0.5. Met?
Result: y

Task: Record COC(=O)[C@@]1(Cc2ccc(F)cc2)[C@H]2c3cc(C(=O)N(C)C)n(CCO)c3C[C@H]2CN1C(=O)c1ccccc1 ; criterion: composite z-score no lower than 0.5. Met?
Result: n

Task: Record CCOC(=O)C[C@H]1[C@H](OC(=O)c2ccc(C(=O)c3ccccc3)cc2)[C@@H](NC(=O)c2ccc3ccccc3c2)c2cc(OCCCO)ccc2N1C(=O)c1ccc2ccccc2n1 ; criterion: composite z-score no lower than 0.5. Met?
Result: n

Task: Record COc1ccc(C(O)C2C=CC3C(=O)N(C)C(=O)C3N2Nc2ccc([N+](=O)[O-])cc2[N+](=O)[O-])cc1OCc1ccccc1 (stereo not given) ; criterion: composite z-score no lower than 0.5. Met?
Result: y

----------
Tested on: Fibrinogen (Alexa647-labelled)
Experiment: fibrinogen binders on compound microarrays, profiling panel, artefact control for SMM control-protein annotation, biochemical, small-molecule microarray, 635/667 nm fluorescence (AID 1131);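 further: z-score merges 667 nm fluorescence with per-spot signal-to-noise over triplicate slides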
Conditions: fibrinogen-A647 binding fluorescence, higher = more signal
Answer Criterion not met if composite z-score is under 0.2, and Criterion met if it is 0.2 or more.

Task: Record CC1CC/C=C\[C@H]2OC34C=CCN(c5ccc(Cl)cc5)C(=O)[C@H]3N(CCCO)C(=O)[C@]4(C)C2C(=O)O1 (stereo partly specified) ; criterion: composite z-score no lower than 0.2. Met?
Result: Criterion not met

Task: Record CC(=O)NCCCC[C@@H]1NC(=O)[C@H]2C[C@@H](C(=O)NCCCCCC[N+](C)(C)C)[C@@H](c3ccc(O)cc3)N2C1=O ; criterion: composite z-score no lower than 0.2. Met?
Result: Criterion not met

Task: Record CC(C)C[C@@H]1NC(=O)[C@@H]2C[C@H](C(=O)O)[C@H](c3ccc(O)cc3)N2C1=O ; criterion: composite z-score no lower than 0.2. Met?
Result: Criterion met

Task: Record COCCOC(=O)N1C(=O)[C@@]2(c3cc(C#CCCO)ccc31)[C@H](c1ccc(O)cc1)N1[C@H](c3ccccc3)[C@H](c3ccccc3)OC(=O)[C@H]1[C@@H]2C(=O)N1CCc2cc(OC)c(OC)cc2C1 ; criterion: composite z-score no lower than 0.2. Met?
Result: Criterion met

Task: Record Cc1ccc(S(=O)(=O)N2[C@@H](c3ccccc3)C(C(=O)O)=CC[C@H]2c2ccc(C#N)cc2)cc1 ; criterion: composite z-score no lower than 0.2. Met?
Result: Criterion met

Task: Record O=C1C2C=CC(C(O)c3cccc(O)c3)N(Nc3ccccc3F)C2C(=O)N1c1ccccc1 (stereo unspecified) ; criterion: composite z-score no lower than 0.2. Met?
Result: Criterion met

Task: Record C=CCOC(=O)[C@H]1[C@@H]2C(=O)O[C@@H](c3ccccc3)[C@@H](c3ccccc3)N2[C@@H](c2ccc(OCCOC(=O)[C@@H]3C[C@@H]4C(=O)N[C@@H](CC(C)C)C(=O)N4[C@@H]3c3ccc(O)cc3)cc2)[C@]12C(=O)Nc1ccc(I)cc12 ; criterion: composite z-score no lower than 0.2. Met?
Result: Criterion met

Task: Record COc1ccc([Si](C)(C)[C@H]2[C@H](CCn3cc([C@H](O)c4ccccc4)nn3)O[C@@]3(C(=O)N(C)c4c(Br)cc(C)cc43)[C@@H]2C)cc1 ; criterion: composite z-score no lower than 0.2. Met?
Result: Criterion not met

Task: Record C=CCC(OC(C)=O)[C@@H]1[C@@H](N(Cc2cccc3ccccc23)C(=O)c2ccc(C)cc2)c2cc(OCCCO)ccc2N1C(=O)c1ccc2ccccc2n1 (stereo partly specified) ; criterion: composite z-score no lower than 0.2. Met?
Result: Criterion met

Task: Record CN1C(=O)[C@]2(CCC(=O)OC(C)(C)C)N=C(c3ccc(OCCCO)cc3)O[C@@H]2c2ccccc21 ; criterion: composite z-score no lower than 0.2. Met?
Result: Criterion met

Task: Record CC(C)CNC(=O)[C@@H]1c2ccccc2C(=O)N(Cc2ccccc2Cl)[C@H]1c1ccc(CO)cc1 ; criterion: composite z-score no lower than 0.2. Met?
Result: Criterion not met

Task: Record COc1ccc([Si](C)(C)[C@@H]2[C@@H](CCO)O[C@]3(C(=O)N(Cc4ccccc4)c4ccc(N5C(=O)c6ccccc6Oc6ccccc65)cc43)[C@H]2C)cc1 ; criterion: composite z-score no lower than 0.2. Met?
Result: Criterion not met

Task: Record COCCOC(=O)N1C(=O)[C@@]2(c3cc(C#CC4(O)CCCCCC4)ccc31)[C@H](c1ccc(OCCO)cc1)N1[C@H](c3ccccc3)[C@H](c3ccccc3)OC(=O)[C@H]1[C@@H]2C(=O)N1CCCCCCC1 ; criterion: composite z-score no lower than 0.2. Met?
Result: Criterion met

Task: Record CO[C@H]1O[C@H](CO)[C@@H](OC(=O)Nc2ccc(C(F)(F)F)cc2)[C@H](OC(=O)Nc2ccccc2-c2ccccc2)[C@H]1OC(=O)Nc1ccccc1-c1ccccc1 ; criterion: composite z-score no lower than 0.2. Met?
Result: Criterion met

Task: Record NCCCC[C@@H]1NC(=O)[C@H]2C[C@@H](C(=O)NCc3ccc(F)cc3)[C@@H](c3cccc(OCCO)c3)N2C1=O ; criterion: composite z-score no lower than 0.2. Met?
Result: Criterion met

Task: Record CC(C)CNC(=O)[C@@H]1c2ccccc2C(=O)N(C2Cc3ccccc3C2)[C@H]1c1ccc(CO)cc1 ; criterion: composite z-score no lower than 0.2. Met?
Result: Criterion not met
